Provide the reported melting point of each item.

Some entries whose results are on file:
chemical_structure=COc1cc2c3c(n(CCCN4CCOCC4)c(=O)c2cc1OC(=O)c1cccnc1)-c1cc2c(cc1C3=O)OCO2 parameter="melting point" reported="274 to 276 °C (dec.)"
chemical_structure=COc1cc2c(=O)n(CCCN3CCOCC3)c3c(c2cc1OC(=O)N(C)C)C(=O)c1cc2c(cc1-3)OCO2 parameter="melting point" reported="268 to 270 °C (dec.)"
chemical_structure=COc1cc2c(=O)n(CCCN3CCOCC3)c3c(c2cc1OC(=O)c1cccnc1)C(=O)c1cc2c(cc1-3)OCO2 parameter="melting point" reported="277 to 279 °C (dec.)"

Below: the item to evaluate.
Input: Fill in: melting point of "COc1cc2c3c(n(CCCN4CCOCC4)c(=O)c2cc1OC(=O)N(C)C)-c1cc2c(cc1C3=O)OCO2" is ___
Output: 290 to 292 °C
